Entries and their pIC50 values follow.
ASSAYED SYSTEM: human PD-L1 / human PD-1 interaction (Homo sapiens, UniProt Q9NZQ7)
Construct: ACRO Biosystems (PD-1, biotin)
Sequence (Q9NZQ7 19-239 limits assumed): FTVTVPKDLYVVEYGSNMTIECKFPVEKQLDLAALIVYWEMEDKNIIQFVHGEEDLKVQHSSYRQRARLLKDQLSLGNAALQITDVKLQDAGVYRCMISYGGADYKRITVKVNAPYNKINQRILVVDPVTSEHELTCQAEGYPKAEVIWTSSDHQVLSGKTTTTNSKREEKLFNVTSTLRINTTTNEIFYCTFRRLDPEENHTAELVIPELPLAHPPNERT
EXPERIMENTAL PROTOCOL: ELISA of PD-1/PD-L1 interaction
Method: […] PBS overnight at 4° C. […] The absorbance was read at 450 nm using a micro-plate spectrophotometer.
pIC50: −log10 of the molar value.

[[record]]
compound = "C[C@@H](O)[C@H](NCc1cc(Cl)c(O[C@H]2CCc3c(-c4cccc(OCCCN5CCC(F)CC5)c4Cl)cccc32)cc1OCc1cncc(C#N)c1)C(=O)NS(C)(=O)=O"
recorded_value = "> 8.30"


Q) GET /values?readout=pIC50&item= Cc1c(OCCCN2CCCC2(C)C)cccc1-c1cccc2c1CC[C@@H]2Oc1cc(OCc2cc(C#N)cc(C#N)c2)c(CN[C@H]2CCC(=O)NC2)cc1Cl
A) > 8.30

Q) Quick check: pIC50 of COC(=O)C1(O)CCN(CCCOc2cccc(-c3cccc4c3CC[C@@H]4Oc3cc(OCc4cncc(C#N)c4)c(CN[C@H](C(=O)O)[C@@H](C)O)cc3Cl)c2C)C1 (stereo partly drawn) ?
A) > 8.30
